B1: tRNA (parent)
chain: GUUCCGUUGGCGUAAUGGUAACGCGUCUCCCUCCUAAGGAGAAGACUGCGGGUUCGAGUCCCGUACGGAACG

Variants of: B1
Assay: yeast fitness relative to wild type (ratio to wild type); higher = fitter; tRNA-Arg(CCU), competitive growth, 37 C, YPD
This sample holds only a part of the variants without activity.
readout: yeast fitness
Just the number.

| seq | quantitativeReadout |
| --- | --- |
| GUUCCGUUGGCGUAAUGGUAACGCGUCUCCCUCCUAAGGCGAAGAUUGCGGGUUGGAGUCCCGUACGGAUCG [A40C C46U C55G A70U] | 0.503 |
| GUUCCGUUGGCGUAAUGGUAACGCGUCUCCCUCCUAAGGAGGAGACUGAGGGUUCGAGUCCCGUACGGAACG [A42G C49A] | 0.782 |
| GUUCCGUUGGCGUAAUGGUAACGCGUCUCUCUCCUAAGGAGAAGACUACGGGUUCGAGUCCCGUACGGAACG [C30U G48A] | 0.861 |

Returns the measured yeast fitness for the input variant. Input: GUUCAGUUGGCGUAAUGGUAACGCGUCUCCAUCCUAAGGAGAAGACUGCGGGUUCGAGUCCCGUACGGAACG [C5A C31A] 0.971

Which yeast fitness is reported for this variant? GUUCCGUUGGCGUUAUGGUAACGCGUCUCACUCCUAAGGAGAAGACUGCGGGUUCGAGUCCCGUAUGGAACG [A14U C30A C66U] 0.547

Please report the recorded yeast fitness for GUUCCGUUGGCGUAAUGGUAACGCGUCUCCCUCCUAAGGAGAAGACUGCGAGUUGGAGUCCCGUACGGAACG [G51A C55G] . 0.648

Could you share which yeast fitness value was measured for GUUCCGUUGGCGUAAUGGUAACGCGUCUCACUCCUAAGGAGAAGACUGCGGGUUCGAGUCCCGUACGGGACG [C30A A69G] ? 0.915

# yeast fitness lookup, item GUUCCGUUGGCGUAAUGGUAACGCGUCUCCCUCCUAAGGUGACGACUGCGGAUUCGAGUCCCGUACGGAACG [A40U A43C G52A] 0.667

// returns reported yeast fitness for input GUUCCGUUGGCGUACUGGUAACGCGUCUCCCUCCUGAGGAGAAGACCGCGGGUUAGAGUCCCGUACGGUACG [A15C A36G U47C C55A A69U] 0.538

Can you look up the measured yeast fitness of GUUCCGUUGGCGUAAUGGUAACGCGUCUACCUCCUAAGGAGAAGACUGCAGGUUCGAGUCCCGUACGGAACG [C29A G50A] for me? 0.678

// lookup yeast fitness for GUUCCGUUGGCGUACUGGUAACGCGUCUCCCUCCUGAGGAGAAGACUGUGGGUUCGAGUCCCGUACUGAACG [A15C A36G C49U G67U] 0.632

yeast fitness lookup needed for GUUCCGUUGGCGUAAUGGUAACGCGUCUCCCUCCUAAGGAGAAGACUGCAGGUGCGAGUCCCGUACGGAACG [G50A U54G] , thanks. 0.559

Which yeast fitness is listed for GUUCCGUUGGCGUAAUGGUCACGCGUCUCCCUCCUAAGGAGAAGACUGCGGGUUCGAGUCCCAUACGGAACG [A20C G63A] ? 0.843

Param item = GUUCCGUUGGCGUAAUGGUAGCGCGUCUCCCUCCUAAGGAGAAGACUGCGGGUUCGAGUACCGUACGGAACG [A21G C60A] ; retrieve measured yeast fitness. 0.577
